B1: LINE1-mini (parent)
chain: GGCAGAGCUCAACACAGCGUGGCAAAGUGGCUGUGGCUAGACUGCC

Variants of: B1
Test: self-cleavage, relative activity (ratio to wild type); higher = more cleavage; in vitro, sequencing; the parent is a self-cleaving ribozyme
Mark label 1 for reported self-cleavage of 0.1 or greater; mark label 0 for anything smaller.

input_sequence	class_label
GGCAGAGCUCAACACAGCGUGGCAAACUGGCUGUGGCUAGAUUGCC [G27C C42U]	label 1
GGCAGAGCUCAACACAGCGUGGCAAAGUGGCUGUGGCUAGAUCGCC [C42U U43C]	label 1
GGCAGAGCUCAAUACAGCGUGUCAAAGUGGCUGUGGCUAGACUGCC [C13U G22U]	label 1
GGCAGAGCUCAACACAGCGUGGCAAAGUGGCUAUGGCUAGAUUGCC [G33A C42U]	label 1
GGCAAAGCUCAACACAGCGUGGCAAAGUGGCUGUGGCUAGAAUGCC [G5A C42A]	label 1
GGCAGAGCUCAACACAGCGUGGGAAAGUGGCUGUGGCUAGUCUGCC [C23G A41U]	label 1
GGCAGGGCUCAACACAGCGUGGCAAAGUGGCUGUGGGUAGACUGCC [A6G C37G]	label 0
GGCAGAGGUCAACACAGCGUGGCAAAGUGGCUGUUGCUAGACUGCC [C8G G35U]	label 1
GUCAGAGCUAAACACAGCGUGGCAAAGUGGCUGUGGCUAGACUGCC [G2U C10A]	label 0
GGCAGAGCUCAACAAAGCGUGGCAAAGUGGCUGUGGGUAGACUGCC [C15A C37G]	label 0
GGCAGAGCUCAACACAGCGUGGCAAACUGGUUGUGGCUAGACUGCC [G27C C31U]	label 0
GGCAGAGCUCACCAGAGCGUGGCAAAGUGGCUGUGGCUAGACUGCC [A12C C15G]	label 0
GGCUGAGCUCAACACAGCGUGGCAAAGUGGCUGUGGCUAGGCUGCC [A4U A41G]	label 0
GGCAGAGCUCAACACAGCGCGGCAAAGUGGCUGUGGCUAGAGUGCC [U20C C42G]	label 0
GGCAGUGCUCAACACAGCGUGGCAAAGUGUCUGUGGCUAGACUGCC [A6U G30U]	label 1
GGCAGAGCUCAACACAGCGUGGCCAAGUGGCUGUGGCUAGACUACC [A24C G44A]	label 1
GGCAGAGCUCAACACAGCGUGGCAAAGCGGCUGUGUCUAGACUGCC [U28C G36U]	label 1
GGAAGAGCGCAACACAGCGUGGCAAAGUGGCUGUGGCUAGACUGCC [C3A U9G]	label 1
GGCAGAGCUCAACACCGCGUGGCAAAGUGGCUGCGGCUAGACUGCC [A16C U34C]	label 0
GGCAGAGGUCAACACAGCGUGGCAAAGUGUCUGUGGCUAGACUGCC [C8G G30U]	label 1
GGCAGAGCUCAACACAGCGUGGCAAAGUUGCUGUUGCUAGACUGCC [G29U G35U]	label 1
GGCAGAGCUCAACAUAGCGUGGCAAAGUGGCUGUGGCUAGUCUGCC [C15U A41U]	label 1
GGCAGAGCUCAAAACAGCGUGGCAAAGUGGCUGUGGUUAGACUGCC [C13A C37U]	label 1
GGCAGGGCUCAUCACAGCGUGGCAAAGUGGCUGUGGCUAGACUGCC [A6G A12U]	label 0
GGCAGAGCUCAACACAGCGUGCCAAAGUGGCUAUGGCUAGACUGCC [G22C G33A]	label 0
GGCAGAGCUCAACACAGCGAGGCAAAGUGGUUGUGGCUAGACUGCC [U20A C31U]	label 1
GGCAGAGCUCAACACAGCGUGGCAAAGUGGCUGUGGCUUGACUGAC [A39U C45A]	label 1
GGCCGAGCUCAACACAGCGUGGCAAAGUGGCUGUGGCUAGAUUGCC [A4C C42U]	label 1
GGUAAAGCUCAACACAGCGUGGCAAAGUGGCUGUGGCUAGACUGCC [C3U G5A]	label 1
GGCAGAGCUCAACACAGCGCGGCAAGGUGGCUGUGGCUAGACUGCC [U20C A26G]	label 1
GGCAGAGCUCAGCACAGCGUGGCAAAGUGGUUGUGGCUAGACUGCC [A12G C31U]	label 0
GGCAGAGCUCAACACACCGUGGCAAAGUGGCUGUGGCUAGCCUGCC [G17C A41C]	label 0
GCCAGAGCUCAACACAGCAUGGCAAAGUGGCUGUGGCUAGACUGCC [G2C G19A]	label 1
GGCAGAGCUCAACCCAGCGUGGCAAAGUGGCUGUGGCUAGAGUGCC [A14C C42G]	label 0
GCCAGAGCUCAACACAGCGUGGCAAAGUGGCUGUGGCUAGCCUGCC [G2C A41C]	label 1
GGCAGAGCUCAACACAGCGUGGCAAAGUGCCUGUGGCUAGACUGCA [G30C C46A]	label 1
GGCAGAGCUCAACACAGCUUGGCAAAGUGGCUGUGGCUAGACUGGC [G19U C45G]	label 1
GACAGAGCUCAACACAGCGUGGCAAAGUGGCUGUGGCUAGACAGCC [G2A U43A]	label 1
GGCAGAGCUCAACAAAUCGUGGCAAAGUGGCUGUGGCUAGACUGCC [C15A G17U]	label 0
GGCAGAGCUCAACACAGGGUGGCAAAAUGGCUGUGGCUAGACUGCC [C18G G27A]	label 1
GGCAGAGCUCAACACAGCGUGGCAAAGUGGCCGUGCCUAGACUGCC [U32C G36C]	label 0
GGCAGAGCUCAACACAGUGUGGCAAAGUGGCUGUGGCUAGAAUGCC [C18U C42A]	label 0
GGCAGAGCUCAACACAUCGUGGCAAAGUGGCUAUGGCUAGACUGCC [G17U G33A]	label 0
